system: SF-268 CNS; assay: NCI tumour cell line growth inhibition, 48 h
# reported GI50; entries follow
attributeMeasured: GI50

• NC(=O)C(Br)CBr (configuration not stated) = 2.65 µM
• O=S(=O)([O-])[O-].[Cl-].[NH2-].[NH2-].[NH2-].[NH2-].[Ru+3].c1ccc(-c2cccnc2)cc1 = > 100 µM
• OCCCCC#Cc1ccccc1C#Cc1ccccc1F = 25.3 µM
• CC(=N\O)/C(C)=N/O.CC(=N\O)/C(C)=N/O.CC(=N\O)/C(C)=N/O.CC(=N\O)/C(C)=N/O.[Cu].[Cu] = 19.8 µM
• O=S1(=O)N(Cc2ccccc2)[C@@H](Cc2ccccc2)C2O[C@H]2[C@H](Cc2ccccc2)N1Cc1ccccc1 (some centres not stated) = 6.08 µM
• O=[N+]([O-])c1cc(O)c(O)cc1-c1cn2ccsc2n1 = 66.1 µM
• NC(N)=N/N=C/c1c(-c2cccs2)nc2sccn12 = 15.2 µM
